src = patent US20230407243A1

- Tested on: EKO-35-Pore strains with integrated AcrB, AcrEF, AcrD, MdtEF with pGDP2:emrE or empty pGDP-2
- run_description: Efflux pump interplay MIC profiling (pGDP2:emrE), porinated
- Type: cell-based, Escherichia coli
- reported_conditions: strain EKO-35 pEmrE; Pore +
readout_kind: Fold Change from EKO-35

>>> df
                                   compound             readout_kind  number
0  CO[C@@H]1[C@@H](OC(N)=O)[C@@H](O)[C@H](Oc2ccc3c(O)c(NC(=O)c4ccc(O)c(CC=C(C)C)c4)c(=O)oc3c2C)OC1(C)C [novobiocin]  Fold Change from EKO-35       1
1  CC[n+]1c(-c2ccccc2)c2cc(N)ccc2c2ccc(N)cc21 [ethidium bromide]  Fold Change from EKO-35       4
2  C[n+]1c2cc(N)ccc2cc2ccc(N)cc21.[Cl-] [acriflavine]  Fold Change from EKO-35      16
3  CN(C)c1ccc(O)c2c1C[C@H]1C[C@H]3[C@H](N(C)C)C(O)=C(C(N)=O)C(=O)[C@@]3(O)C(O)=C1C2=O [minocycline]  Fold Change from EKO-35       1

====

- Tested on: EKO-35 araC::acrD Pore
- run_description: MIC susceptibility profiling, porinated efflux platform
- Format: cell-based, Escherichia coli
- reported_conditions: Escherichia coli; Table 14A; porinated; technical duplicate; read-out: Minimum inhibitory concentration, EKO-35 araC::acrD Pore
Assign labels as follows, please: true for MIC below 1 µg/mL; false for MIC equal to or exceeding 1 µg/mL.

In [3]: df
Out[3]:
                            compound_smiles         measured_target  label_class
0           CCn1cc(C(=O)O)c(=O)c2ccc(C)nc21  EKO-35 araC::acrD Pore        false
1  CN[C@@H]1[C@H](O)[C@H](NC)[C@H]2O[C@@]3(O)C(=O)C[C@@H](C)O[C@H]3O[C@@H]2[C@H]1O  EKO-35 araC::acrD Pore        false
2  CN(C)[C@@H]1C(O)=C(C(N)=O)C(=O)[C@@]2(O)C(O)=C3C(=O)c4c(O)cccc4[C@@](C)(O)[C@H]3C[C@@H]12  EKO-35 araC::acrD Pore         true
3  Cc1onc(-c2ccccc2)c1C(=O)N[C@@H]1C(=O)N2[C@@H]1SC(C)(C)[C@@H]2C(=O)O  EKO-35 araC::acrD Pore        false
4  O=C(N[C@H](CO)[C@H](O)c1ccc([N+](=O)[O-])cc1)C(Cl)Cl  EKO-35 araC::acrD Pore         true

====

- System: EKO-35 araC::acrD
- run_description: MIC susceptibility profiling, efflux platform
- Format: cell-based, Escherichia coli
- reported_conditions: Table 13A; non-porinated; technical duplicate
- Procedure: Single colonies were used to inoculate 3 mL of LB followed by incubation at 37° C. for 18 h with aeration at 220 rpm. […] To a 384-well microtiter plate (Corning, untreated polystyrene), 500 nL of compound was dispensed, in duplicate, and serially titrated 2-fold using an Echo 550 acoustic liquid dispenser (Labcyte Inc.). […] To enable background correction post-incubation, the OD600 nm was measured (Biotek Synergy Neo2 microplate reader) prior to incubation. […]
Please note: t applies when Minimum Inhibitory Concentration, EKO-35 araC::acrD is 300 µg/mL or greater, and f applies otherwise.

compound	label_class
N#CC(=NNc1ccc(F)c(Cl)c1)C(=O)c1ccc(Cl)cc1	t
N#CC(C#N)=NNc1ccc(-n2ccc(C(F)(F)F)n2)cc1	f
Nc1ccccc1SCc1nc(-c2ccc(Cl)cc2)no1	f
Cn1cc(Br)c(-c2cccc(NC(=O)Nc3ccc(OC(F)(F)F)cc3)c2)n1	t
COC(=O)c1sc(N2CCCC2)c(C#N)c1-c1cccs1	f
O=C(NC(=O)N1CCc2c([nH]c3ccccc23)C1C(F)(F)F)c1ccccc1 (centres unmarked)	t
N#CC(=NNc1cccc(C(F)(F)F)c1)C(=O)c1ccsc1	t
O=C(Nc1ccccc1C(=O)Nc1nnc(C(F)(F)F)s1)c1ccccc1Cl	t
O=C(Nc1ccccc1)Nc1ccc(Br)c(C(F)(F)F)c1	t
O=C(Nc1ccc(C(F)(F)F)cc1)Nc1ccc(C(F)(F)F)cc1	t
CC(C)(C)c1cc(C(=O)NNC(=O)Nc2cccc3ccccc23)n(Cc2ccc(F)cc2)n1	t
O=C(Nc1cccc(Oc2c(F)c(F)c(F)c(F)c2F)c1)c1ccccc1	t
C=C1CCO[C@]2([C@@H](O)[C@@](C)(O)CO)NC(=O)[C@@]1(O)NC2=O	f
O=[N+]([O-])c1ccc2c(c1)C(=NO)c1cc([N+](=O)[O-])ccc1-2	f
N#CC(C#N)=NNc1cccc(Cl)c1	f
N#Cc1ccc(-c2c(NC(=O)C(Cl)Cl)oc(-c3cccs3)c2C#N)cc1	t
C[n+]1c2cc(N)ccc2cc2ccc(N)cc21.[Cl-]	f
O=c1oc(-c2ccccc2Cl)nn1-c1ccc(C(F)(F)F)cn1	f
CC(C)c1ccc(C=C(C#N)c2nc3ccccc3[nH]2)cc1	t
C[C@H](CCC(=O)NCCS(=O)(=O)[O-])[C@H]1CC[C@H]2[C@@H]3CC[C@@H]4C[C@H](O)CC[C@]4(C)[C@H]3C[C@H](O)[C@]12C.[Na+] [sodium taurodeoxycholate]	t

====

- Test system: E. coli EKO-35
- run_description: microbe, parasite or virus in culture
- Type: cell-based, Escherichia coli
- reported_conditions: Table 10; without pore; technical duplicate
Assign fulfilled to entries whose Minimum inhibitory concentration (MIC), EKO-35 meets or exceeds 300 µg/mL; assign not fulfilled to the rest.

compound	label_class
N#CC(=NNc1cccc(C(F)(F)F)c1)C(=O)c1ccsc1	fulfilled
COC(=O)c1sc(N2CCCC2)c(C#N)c1-c1cccs1	not fulfilled
O=C(Nc1ccc(C(F)(F)F)cc1)Nc1ccc(C(F)(F)F)cc1	fulfilled
N#CC(=NNc1ccc(F)c(Cl)c1)C(=O)c1ccc(Cl)cc1	fulfilled
O=C(NC(=O)N1CCc2c([nH]c3ccccc23)C1C(F)(F)F)c1ccccc1 (centres unmarked)	not fulfilled
N#Cc1ccc(-c2c(NC(=O)C(Cl)Cl)oc(-c3cccs3)c2C#N)cc1	fulfilled
N#CC(C#N)=NNc1ccc(-n2ccc(C(F)(F)F)n2)cc1	fulfilled
O=C(Nc1cccc(Oc2c(F)c(F)c(F)c(F)c2F)c1)c1ccccc1	fulfilled
C[n+]1c2cc(N)ccc2cc2ccc(N)cc21.[Cl-]	not fulfilled
N#CC(C#N)=NNc1cccc(Cl)c1	not fulfilled
C[C@H](CCC(=O)NCCS(=O)(=O)[O-])[C@H]1CC[C@H]2[C@@H]3CC[C@@H]4C[C@H](O)CC[C@]4(C)[C@H]3C[C@H](O)[C@]12C.[Na+] [sodium taurodeoxycholate]	fulfilled

====

What follows is a record of MIC for EKO-35 araC::mexCD Pore.

compound_smiles	MIC (µg/mL)
CC[C@H]1OC(=O)[C@H](C)[C@@H](O[C@H]2C[C@@](C)(OC)[C@@H](O)[C@H](C)O2)[C@H](C)[C@@H](O[C@@H]2O[C@H](C)C[C@H](N(C)C)[C@H]2O)[C@](C)(O)C[C@@H](C)C(=O)[C@H](C)[C@@H](O)[C@]1(C)O	1.56
CC[C@H]1OC(=O)[C@H](C)[C@@H](O[C@H]2C[C@@](C)(OC)[C@@H](O)[C@H](C)O2)[C@H](C)[C@@H](O[C@@H]2O[C@H](C)C[C@H](N(C)C)[C@H]2O)[C@](C)(O)C[C@@H](C)CN(C)[C@H](C)[C@@H](O)[C@]1(C)O	0.098

====

What follows is a collection of MIC values obtained with EKO-35 araC::acrD Pore.
readout_kind: MIC (µg/mL)

compound	readout_kind	number
CC[C@H]1OC(=O)[C@H](C)[C@@H](O[C@H]2C[C@@](C)(OC)[C@@H](O)[C@H](C)O2)[C@H](C)[C@@H](O[C@@H]2O[C@H](C)C[C@H](N(C)C)[C@H]2O)[C@](C)(O)C[C@@H](C)CN(C)[C@H](C)[C@@H](O)[C@]1(C)O	MIC	0.024
CO[C@H]1/C=C/O[C@@]2(C)Oc3c(C)c(O)c4c(O)c(c(/C=N/N5CCN(C)CC5)c(O)c4c3C2=O)NC(=O)/C(C)=C\C=C\[C@H](C)[C@H](O)[C@@H](C)[C@@H](O)[C@@H](C)[C@H](OC(C)=O)[C@@H]1C	MIC	0.391
COc1cccc2c1C(=O)c1c(O)c3c(c(O)c1C2=O)C[C@@](O)(C(C)=O)C[C@@H]3O[C@H]1C[C@H](N)[C@H](O)[C@H](C)O1	MIC	1.56
CC[C@H]1OC(=O)[C@H](C)[C@@H](O[C@H]2C[C@@](C)(OC)[C@@H](O)[C@H](C)O2)[C@H](C)[C@@H](O[C@@H]2O[C@H](C)C[C@H](N(C)C)[C@H]2O)[C@](C)(O)C[C@@H](C)C(=O)[C@H](C)[C@@H](O)[C@]1(C)O	MIC	0.195
COc1ccc(C[C@H](N)C(=O)N[C@H]2[C@@H](O)[C@H](n3cnc4c(N(C)C)ncnc43)O[C@@H]2CO)cc1	MIC	0.781
[H]/N=C(/N)N[C@H]1[C@H](O)[C@@H](O)[C@H](O[C@@H]2O[C@@H](C)[C@](O)(C=O)[C@H]2O[C@@H]2O[C@@H](CO)[C@H](O)[C@@H](O)[C@@H]2NC)[C@@H](N/C(N)=N\[H])[C@@H]1O	MIC	3.12
CC1(C)S[C@@H]2[C@H](NC(=O)[C@H](N)c3ccccc3)C(=O)N2[C@H]1C(=O)O	MIC	25
COc1cccc2c1C(=O)c1c(O)c3c(c(O)c1C2=O)C[C@@](O)(C(=O)CO)C[C@@H]3O[C@H]1C[C@H](N)[C@H](O)[C@H](C)O1	MIC	0.781
CCn1cc(C(=O)O)c(=O)c2cc(F)c(N3CCNCC3)cc21	MIC	0.02
CN(C)c1ccc(O)c2c1C[C@H]1C[C@H]3[C@H](N(C)C)C(O)=C(C(N)=O)C(=O)[C@@]3(O)C(O)=C1C2=O	MIC	0.098
CC[n+]1c(-c2ccccc2)c2cc(N)ccc2c2ccc(N)cc21 [ethidium bromide]	MIC	0.195
